assay.target: CA XII (Homo sapiens, UniProt O43570)
Sequence (O43570 25-354): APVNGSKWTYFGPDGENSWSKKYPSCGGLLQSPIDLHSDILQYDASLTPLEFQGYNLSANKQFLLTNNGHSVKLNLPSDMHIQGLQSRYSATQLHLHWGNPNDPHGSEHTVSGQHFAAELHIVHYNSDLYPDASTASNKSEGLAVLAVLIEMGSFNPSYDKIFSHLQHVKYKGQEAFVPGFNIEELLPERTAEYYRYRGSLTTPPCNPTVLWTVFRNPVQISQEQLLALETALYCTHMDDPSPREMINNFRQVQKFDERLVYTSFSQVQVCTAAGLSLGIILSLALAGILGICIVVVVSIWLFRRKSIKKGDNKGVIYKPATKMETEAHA
test.description: CA-catalysed CO2 hydration stopped-flow inhibition assay, CA XII
Type: biochemical
test.context: mean from 3 assays, μM unless stated
observation.type: Ki

Example cases with answers are listed next.
In [3]: df
Out[3]:
                                   compound  value_measured
0  CCOC(=O)c1cc2ccc(OCC(=O)Nc3ccc(S(=O)(=O)Nc4ncnc(OC)c4OC)cc3)cc2oc1=O        > 100 µM
1  COc1ccc(NS(=O)(=O)c2ccc(NC(=O)c3cc4cc(Cl)ccc4oc3=O)cc2)nn1 [11b]        > 100 µM
2  CC(=O)NS(=O)(=O)c1ccc(NC(=O)c2cc3cc(Br)ccc3oc2=O)cc1 [15c]         10.6 µM
3  COc1cc(NS(=O)(=O)c2ccc(NC(=O)c3cc4cc(Br)ccc4oc3=O)cc2)nc(OC)n1 [14c]        > 100 µM

Need Ki of COc1cc(NS(=O)(=O)c2ccc(NC(=O)c3cc4ccccc4oc3=O)cc2)nc(OC)n1 [14e] , thanks.
> 100 µM

Need Ki of Cc1nnc(NS(=O)(=O)c2ccc(NC(=O)c3cc4cc(Br)ccc4oc3=O)cc2)s1 [13c] , thanks.
> 100 µM

Need Ki of COc1ccc(NS(=O)(=O)c2ccc(NC(=O)c3cc4cc(Cl)cc(Cl)c4oc3=O)cc2)nn1 [11d] , thanks.
> 100 µM

Need Ki of CCOC(=O)c1cc2ccc(OCC(=O)Nc3ccc(S(=O)(=O)NC(C)=O)cc3)cc2oc1=O , thanks.
1.9 µM

Need Ki of CC(=O)NS(=O)(=O)c1ccc(NC(=O)c2cc3ccccc3oc2=O)cc1 [15e] , thanks.
6.3 µM

====

test.description: MTS cytotoxicity / cell viability assay
Format: cell-based, human
test.context: human, HEK293 cells
observation.type: viability at 72 h, 100 µM (%)
Write it as a number; the unit % goes unstated.

Need viability at 72 h, 100 µM of COc1ccc2oc(=O)c(C(=O)Nc3cc(C(F)(F)F)c(S(N)(=O)=O)cc3S(N)(=O)=O)cc2c1 [18f] , thanks.
97
